TEST SYSTEM: IRAK4 (Homo sapiens, UniProt Q9NWZ3)
Construct: endogenous in cells; host or cells: Karpas299
Sequence (Q9NWZ3 whole entry): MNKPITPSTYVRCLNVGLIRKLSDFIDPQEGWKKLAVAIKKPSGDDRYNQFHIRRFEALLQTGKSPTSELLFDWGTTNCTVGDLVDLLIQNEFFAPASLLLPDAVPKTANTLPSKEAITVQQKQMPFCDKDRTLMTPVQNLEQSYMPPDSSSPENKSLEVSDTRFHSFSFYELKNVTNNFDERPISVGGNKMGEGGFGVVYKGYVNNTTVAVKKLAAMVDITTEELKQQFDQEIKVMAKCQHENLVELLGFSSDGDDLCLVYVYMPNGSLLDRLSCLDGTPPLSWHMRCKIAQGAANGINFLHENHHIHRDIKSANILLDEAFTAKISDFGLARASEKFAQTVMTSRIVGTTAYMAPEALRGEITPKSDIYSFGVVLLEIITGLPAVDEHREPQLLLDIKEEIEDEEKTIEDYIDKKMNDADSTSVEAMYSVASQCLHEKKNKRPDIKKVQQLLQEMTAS
TEST SUMMARY: IRAK4 Degradation Assay (Karpas299, HTRF/TR-FRET)
Assay type: cell-based
MEASUREMENT SETUP: Karpas-299 cells, 24 h treatment; maximum percentage of degradation; read-out: IRAK4 in Karpas-299 (24 h) Dmax (%)
ENDPOINT NAME: Dmax (%)

compound="Cc1nc(C2CCC(=O)NC2=O)ccc1N1CCC(N2CCC3(CCC(n4cc5cc(NC(=O)c6ccc7cc(C#N)cnn67)c(C(C)(C)O)cc5n4)CC3)CC2)CC1 (stereo not shown)" test_system="IRAK4 (Homo sapiens, UniProt Q9NWZ3)" data_value=96
compound=CC(C)(O)c1cc2nn([C@H]3CC[C@H](N4CCN(C(=O)C5CN(c6cc(F)c([C@H]7CCC(=O)NC7=O)c(F)c6)C5)CC4)CC3)cc2cc1NC(=O)c1ccc2cc(C(F)(F)F)cnn12 test_system="IRAK4 (Homo sapiens, UniProt Q9NWZ3)" data_value=97
compound="O=C1CCC(c2ccc(N3CC(C(=O)N4CCN([C@H]5CC[C@H](n6cc(NC(=O)c7coc(-c8ccnc(NCC(F)(F)F)c8)n7)c(C(F)F)n6)CC5)CC4)C3)cc2)C(=O)N1 (stereo partly shown)" test_system="IRAK4 (Homo sapiens, UniProt Q9NWZ3)" data_value=100
compound=CC(C)(O)c1cc2nn(C3CCN(C4CCN(C(=O)[C@@H]5CCN(c6cc(F)c([C@H]7CCC(=O)NC7=O)c(F)c6)C5)CC4)CC3)cc2cc1NC(=O)c1ccc2cc(C#N)cnn12 test_system="IRAK4 (Homo sapiens, UniProt Q9NWZ3)" data_value=96
compound=O=C1CCN(c2c(F)cc(N3CC[C@H](C(=O)N4CCN([C@H]5CC[C@H](n6cc(NC(=O)c7cnn(-c8ccnc(NCC9CC9)c8)n7)c(C(F)F)n6)CC5)CC4)C3)cc2F)C(=O)N1 test_system="IRAK4 (Homo sapiens, UniProt Q9NWZ3)" data_value=95
compound=C[C@@H]1CN(CC2CN(c3cc(F)c([C@H]4CCC(=O)NC4=O)c(F)c3)C2)CCN1[C@H]1CC[C@H](n2cc3cc(NC(=O)c4ccc5cc(C#N)cnn45)c(C(C)(C)O)cc3n2)CC1 test_system="IRAK4 (Homo sapiens, UniProt Q9NWZ3)" data_value=96
compound=CC(C)(O)c1cc2nn([C@H]3CC[C@H](N4CCN(C(=O)C5CCN(c6cc(F)c([C@H]7CCC(=O)NC7=O)c(F)c6)CC5)CC4)CC3)cc2cc1NC(=O)c1cccc(C(F)(F)F)n1 test_system="IRAK4 (Homo sapiens, UniProt Q9NWZ3)" data_value=98
compound=CC(C)(O)c1cc2nn([C@H]3CC[C@H](N4CCN(CCNc5cc(F)c([C@H]6CCC(=O)NC6=O)c(F)c5)CC4)CC3)cc2cc1NC(=O)c1ccc2cc(C#N)cnn12 test_system="IRAK4 (Homo sapiens, UniProt Q9NWZ3)" data_value=98
compound=COc1cc2nn(C3CCN(C4CCN(C(=O)[C@@H]5CCN(c6cc(F)c([C@H]7CCC(=O)NC7=O)c(F)c6)C5)CC4)CC3)cc2cc1NC(=O)c1cccc(C(F)(F)F)n1 test_system="IRAK4 (Homo sapiens, UniProt Q9NWZ3)" data_value=95
compound=COC[C@@H]1CN(C[C@@H]2CCN(c3cc(F)c([C@H]4CCC(=O)NC4=O)c(F)c3)C2)CCN1[C@H]1CC[C@H](n2cc3cc(NC(=O)c4ccc5cc(C#N)cnn45)c(C(C)(C)O)cc3n2)CC1 test_system="IRAK4 (Homo sapiens, UniProt Q9NWZ3)" data_value=97
compound=COc1cc(N2CC(C(=O)N3CCN([C@H]4CC[C@H](n5cc6cc(NC(=O)c7ccc8cc(C#N)cnn78)c(C(C)(C)O)cc6n5)CC4)CC3)C2)c(F)cc1N1CCC(=O)NC1=O test_system="IRAK4 (Homo sapiens, UniProt Q9NWZ3)" data_value=96
compound=COC[C@H]1CN(C(=O)C2CN(c3cc(F)c([C@H]4CCC(=O)NC4=O)c(F)c3)C2)CCN1[C@H]1CC[C@H](n2cc3cc(NC(=O)c4ccc5cc(C#N)cnn45)c(C(C)(C)O)cc3n2)CC1 test_system="IRAK4 (Homo sapiens, UniProt Q9NWZ3)" data_value=96
compound=CC(C)(O)c1cc2nn([C@H]3CC[C@H](N4CCN([C@H]5C[C@@H](c6ccc(N[C@@H]7CCC(=O)NC7=O)cc6)C5)CC4)CC3)cc2cc1NC(=O)c1ccc2cc(C#N)cnn12 test_system="IRAK4 (Homo sapiens, UniProt Q9NWZ3)" data_value=94
compound=N#Cc1cnn2c(C(=O)Nc3cc4cn([C@H]5CC[C@H](N6CCN(C(=O)C7CN(c8cc(F)c([C@H]9CCC(=O)NC9=O)c(F)c8)C7)CC6)CC5)nc4c4c3OCO4)ccc2c1 test_system="IRAK4 (Homo sapiens, UniProt Q9NWZ3)" data_value=95
compound=O=C1CC[C@H](c2c(F)cc(N3CC[C@@H](C(=O)N4CCN([C@H]5CC[C@H](n6cc7cc(NC(=O)c8cccc(C(F)(F)F)n8)c(C(=O)N[C@H]8C[C@H](CO)C8)cc7n6)CC5)CC4)C3)cc2F)C(=O)N1 test_system="IRAK4 (Homo sapiens, UniProt Q9NWZ3)" data_value=100
compound=COC[C@H]1CN([C@H]2CC[C@H](n3cc4cc(NC(=O)c5ccc6cc(C#N)cnn56)c(C(C)(C)O)cc4n3)CC2)CCN1C1CCN(c2cc(F)c([C@H]3CCC(=O)NC3=O)c(F)c2)CC1 test_system="IRAK4 (Homo sapiens, UniProt Q9NWZ3)" data_value=96
compound=CC(C)(O)c1cc2nn([C@H]3CC[C@H](C4CCN(CC5CN(c6cc(F)c([C@H]7CCC(=O)NC7=O)c(F)c6)C5)CC4)CC3)cc2cc1NC(=O)c1ccc2cc(C#N)cnn12 test_system="IRAK4 (Homo sapiens, UniProt Q9NWZ3)" data_value=99
compound=O=C1CC[C@H](c2c(F)cc(N3CC[C@@H](C(=O)N4CCN([C@H]5CC[C@H](n6cc(NC(=O)c7coc(-c8ccnc(NCC9CC9)c8)n7)c(C(F)F)n6)CC5)C(=O)C4)C3)cc2F)C(=O)N1 test_system="IRAK4 (Homo sapiens, UniProt Q9NWZ3)" data_value=97
compound=O=C1CC[C@H](c2c(F)cc(N3CC[C@@H](C(=O)N4CCN([C@H]5CC[C@H](n6cc(NC(=O)c7coc(-c8ccnc(NCC9CC9)c8)n7)c(C(F)F)n6)CC5)CC4)C3)cc2F)C(=O)N1 test_system="IRAK4 (Homo sapiens, UniProt Q9NWZ3)" data_value=99
